Test system: Staphylococcus epidermidis
assayProtocol: Antibacterial activity against methicillin resistant Staphylococcus epidermidis clinical isolate 19-5 assessed as inhibition of bacterial growth incubated for 18 to 24 hrs by broth microdilution method
Format: functional
cond: time 18-24 hrs
Bridge positions count the residues as written; N and C are the ends. Square brackets hold non-standard residues; d marks the D form. Peptide text beside a SMILES is read from it. * marks the point of attachment. Decanoyl(3R-OH) = CCCCCCC[C@@H](O)CC(=O)*; dDab = NCC[C@@H](N)C(=O)O; Dab = NCC[C@H](N)C(=O)O
Here, each record is paired with measured MIC data.
Output spec: scalar in µg/mL, unitless text.

Solved cases below.
compound | MIC (µg/mL)
CCCCCCCCCC(=O)N[C@H](CCN)C(=O)N[C@H]1CCCNC(=O)[C@H]([C@@H](C)O)NC(=O)[C@H](CCN)NC(=O)[C@H](CCN)NC(=O)[C@H](CC(C)C)NC(=O)[C@@H](CC(C)C)NC(=O)[C@H](CCN)NC1=O | 4
CCCCCCC[C@@H](O)CC(=O)N[C@H](CCN)C(=O)N[C@H]1CCNC(=O)[C@H](CC(C)C)NC(=O)[C@H](CCN)NC(=O)[C@H](CCN)NC(=O)[C@H](CC(C)C)NC(=O)[C@@H](CC(C)C)NC(=O)[C@H](CCN)NC1=O | 2
CCCCCCCCCC(=O)N[C@H](CCN)C(=O)N[C@H]1CCNC(=O)[C@H]([C@@H](C)O)NC(=O)[C@H](CCN)NC(=O)[C@H](CCN)NC(=O)[C@H](CC(C)C)NC(=O)[C@@H](Cc2ccc(C)cc2)NC(=O)[C@H](CCN)NC1=O | 2
CCCCCCCCCC(=O)N[C@H](CCN)C(=O)N[C@H]1CCNC(=O)[C@H]([C@@H](C)O)NC(=O)[C@H](CCN)NC(=O)[C@H](CCN)NC(=O)[C@H](CC(C)C)NC(=O)[C@H](CC(C)C)NC(=O)[C@H](CCN)NC1=O | 4
CC[C@H](C)CCCCC(=O)N[C@H](CCN)C(=O)N[C@H]1CCNC(=O)[C@H](CC(C)C)NC(=O)[C@H](CCN)NC(=O)[C@H](CCN)NC(=O)[C@H](CC(C)C)NC(=O)[C@@H](CC(C)C)NC(=O)[C@H](CCN)NC1=O | 4

Reported MIC for CCCCCCCCCC(=O)N[C@H](CCN)C(=O)N[C@H]1CCNC(=O)[C@H]([C@@H](C)O)NC(=O)[C@H](CCN)NC(=O)[C@H](CCN)NC(=O)[C@H](CC(C)C)NC(=O)[C@@H](Cc2ccc(Cl)cc2)NC(=O)[C@H](CCN)NC1=O : what is it?
0.5

Reported MIC for CC(C)C[C@@H]1NC(=O)[C@@H](CC(C)C)NC(=O)[C@H](CCN)NC(=O)[C@@H](NC(=O)[C@@H](CCN)NC(=O)CCCCCC(C)(C)C)CCNC(=O)[C@H]([C@@H](C)O)NC(=O)[C@H](CCN)NC(=O)[C@H](CCN)NC1=O : what is it?
8

Reported MIC for CCCCCCCCCC(=O)N[C@H](CCN)C(=O)N[C@H]1CCNC(=O)[C@H]([C@@H](C)O)NC(=O)[C@H](CCN)NC(=O)[C@H](CCN)NC(=O)[C@H](CC(C)C)NC(=O)[C@@H](Cc2ccccc2Cl)NC(=O)[C@H](CCN)NC1=O : what is it?
4

Reported MIC for CCCCCCC[C@@H](O)CC(=O)N[C@H](CO)C(=O)N[C@H](CCN)C(=O)N[C@H]1CCNC(=O)[C@H](CC(C)C)NC(=O)[C@H](CCN)NC(=O)[C@H](CCN)NC(=O)[C@H](Cc2ccccc2)NC(=O)[C@@H](CC(C)C)NC(=O)[C@H](CCN)NC1=O : what is it?
2

Reported MIC for CCCCCCCCCC(=O)N[C@H](CCN)C(=O)N[C@H]1CCNC(=O)[C@H]([C@@H](C)O)NC(=O)[C@H](CCN)NC(=O)[C@H](CCN)NC(=O)[C@H](CC(C)C)NC(=O)[C@@H](CC(C)C)NC(=O)[C@H](CCCCN)NC1=O : what is it?
8

Reported MIC for CCCCCCC[C@@H](O)CC(=O)N[C@H](CCN)C(=O)N[C@H]1CCNC(=O)[C@H]([C@@H](C)O)NC(=O)[C@H](CCN)NC(=O)[C@H](CCN)NC(=O)[C@H](CC(C)C)NC(=O)[C@@H](CC(C)C)NC(=O)[C@H](CCN)NC1=O : what is it?
16

Reported MIC for CC(C)C[C@@H]1NC(=O)[C@@H](CC(C)C)NC(=O)[C@H](CCN)NC(=O)[C@@H](NC(=O)[C@@H](CCN)NC(=O)CCCCCc2ccccc2)CCNC(=O)[C@H]([C@@H](C)O)NC(=O)[C@H](CCN)NC(=O)[C@H](CCN)NC1=O : what is it?
8

Reported MIC for CCCCCCCCCC(=O)N[C@@H](C(=O)N[C@H]1CCNC(=O)[C@H]([C@@H](C)O)NC(=O)[C@H](CCN)NC(=O)[C@H](CCN)NC(=O)[C@H](CC(C)C)NC(=O)[C@@H](CC(C)C)NC(=O)[C@H](CCN)NC1=O)[C@H](C)O : what is it?
16

Reported MIC for CCCCCCCCCC(=O)N[C@H](CCN)C(=O)N[C@H]1CCNC(=O)[C@H]([C@@H](C)O)NC(=O)[C@H](CCN)NC(=O)[C@H](CCN)NC(=O)[C@@H](CC(C)C)NC(=O)[C@@H](CC(C)C)NC(=O)[C@H](CCN)NC1=O : what is it?
2

Reported MIC for CCCCCCCCCC(=O)N[C@H](CCN)C(=O)N[C@H]1CCNC(=O)[C@H]([C@@H](C)O)NC(=O)[C@H](CCN)NC(=O)[C@H](CCN)NC(=O)[C@H](CCCCCCCC)NC(=O)[C@@H](CC(C)C)NC(=O)[C@H](CCN)NC1=O : what is it?
1

Reported MIC for CCCCCCC[C@@H](O)CC(=O)N[C@H](CCN)C(=O)N[C@H]1CCNC(=O)[C@H](CC(C)C)NC(=O)[C@H](CCN)NC(=O)[C@H](CCN)NC(=O)[C@H](CC(C)C)NC(=O)[C@@H](Cc2ccccc2)NC(=O)[C@H](CCN)NC1=O ({Decanoyl(3R-OH)}-[dDab][Dab][Dab][dF]L[Dab][Dab]L; lactam 2-C) : what is it?
2
